Data credit: PubChem BioAssay (NCI)

- Test system: RPMI-8226 leukemia
- protocol text: NCI-60 one-dose screen, 48 h (100 = growth as untreated, 0 = no growth, -100 = all killed)
- condition parameters: 10 µM unless noted
About 83,000 compounds went through this panel and 20% of them were active in at least one assay; those are over-represented in the sample as a whole.
measure: growth (%)
Could you give me the number in %? Just the number is fine.

Input: Respond only with growth recorded for `NS(=O)(=O)c1ccc(-n2cc(-c3cccc(NC(=O)c4ccc(Cl)c(C(F)(F)F)c4)c3)nn2)cc1`
Output: 46.3

Input: Respond only with growth recorded for `O=C(Nc1ccccc1)N1CCN(c2cc(-c3cn(-c4ccccc4)nc3-c3cccc(O)c3)ccn2)CC1`
Output: 32.5

Input: Respond only with growth recorded for `COc1ccc(-c2c(Nn3cnnn3)no[n+]2[O-])cc1`
Output: 42

Input: Respond only with growth recorded for `COc1ccc(C(=O)/C=C/c2cccc3ccccc23)cc1S(N)(=O)=O`
Output: -10.6

Input: Respond only with growth recorded for `N/C(=N\c1nc2ccccc2s1)NC(=O)Nc1c(Cl)cccc1Cl`
Output: 17.2

Input: Respond only with growth recorded for CC(C)(C)OC(=O)/C=C/c1cccc2c1C(=O)NC(C)(c1cc3cc(Cl)ccc3oc1=O)N2 (stereo not drawn)
Output: 1.99

Input: Respond only with growth recorded for `O=C(c1ccc(Cl)cc1)c1ccc(OCCCN2CCN(c3ccncc3)CC2)cc1`
Output: 10.2

Input: Respond only with growth recorded for Cc1ccc(C2CC(c3ccc(S(=O)(=O)NCCNc4nc(Nc5ccc(F)cc5)nc(N(C)C)n4)cc3)=Nc3c(N)nc(N)nc3N2)cc1 (stereo not drawn)
Output: 6.3

Input: Respond only with growth recorded for `CSc1ccc(NC(=O)c2ccc3nnn(/C(C#N)=C/c4ccccn4)c3c2)cc1`
Output: -32.6

Input: Respond only with growth recorded for `COc1ccc(-c2ccc(SCC(=O)Nc3ccc(S(N)(=O)=O)cc3Br)nn2)cc1`
Output: 85.8

Input: Respond only with growth recorded for `CCCCSc1nc(NCCc2c[nH]c3ccccc23)c(C#N)c(-c2ccc(F)cc2)n1`
Output: 49.7

Input: Respond only with growth recorded for `C/C(=N\Nc1ccc(S(N)(=O)=O)cc1)c1ccc(N=Nc2c(Nc3ccccc3)[nH][nH]c2=O)cc1`
Output: 3.47

Input: Respond only with growth recorded for C=C1CC[C@@H]2[C@]3(C)COC(c4cn(-c5ccccc5)nc4-c4cccc([N+](=O)[O-])c4)O[C@@H]3CC[C@@]2(C)[C@@H]1C/C=C1/C(=O)OC[C@H]1O (stereo partly drawn)
Output: -42.4

* * *

- System: SW-620 colon
- protocol text: NCI-60 one-dose screen, 48 h
- condition parameters: 10 µM unless noted
Compounds without any hit were thinned out: in the full panel of roughly 83,000, 20% have a hit. The source made the active and inactive calls. Rule for the calls: active = growth percent below 10; inactive = the rest.
Give one outcome, nothing more. List: active, inactive

Input: I would be grateful if you could indicate the recorded call for `COC(=O)C[C@](O)(CCCC(C)(C)O)C(=O)O[C@H]1C(OC)=C[C@@]23CCCN2CCc2cc4c(cc2[C@@H]13)OCO4` .
Output: active

Input: I would be grateful if you could indicate the recorded call for C=C1CC[C@@H]2[C@]3(C)COC(c4cn[nH]c4-c4cccc(Cl)c4)O[C@@H]3CC[C@@]2(C)[C@@H]1C/C=C1/C(=O)OCC1O (some centres not stated) .
Output: active

Input: I would be grateful if you could indicate the recorded call for `Cc1ccc(C(=O)C(c2c[nH]c3ccccc23)c2c[nH]c3ccccc23)cc1` .
Output: active

Input: I would be grateful if you could indicate the recorded call for COc1cc2c(c(OC)c1OC)C(=O)CC(c1cccc(NC(=O)c3cc(NC(=O)[C@H](C)N)ccc3Cl)c1)O2 (some centres not stated) .
Output: inactive

Input: I would be grateful if you could indicate the recorded call for `CCCSc1nc(NCCc2c[nH]c3ccccc23)c(C#N)c(-c2ccc(OC)cc2)n1` .
Output: inactive

Input: I would be grateful if you could indicate the recorded call for `Cc1cccc(-c2nc(Nc3cccc(S(N)(=O)=O)c3)c3ccccc3n2)c1` .
Output: inactive

Input: I would be grateful if you could indicate the recorded call for `Cn1cc(-c2cc3nc(-c4cn(C)c5ncc(Br)cc45)cc(N)n3n2)c2cc(Cl)ccc21` .
Output: active

Input: I would be grateful if you could indicate the recorded call for `CC(C)CSc1nc(NCCc2c[nH]c3ccccc23)c(C#N)c(-c2ccccc2)n1` .
Output: inactive

Input: I would be grateful if you could indicate the recorded call for `COc1ccc2c(c1)c(-c1cc(N)n3nc(-c4cn(C)c5ccccc45)cc3n1)cn2C` .
Output: active

Input: I would be grateful if you could indicate the recorded call for `NS(=O)(=O)c1ccc(NNC(=O)CCC(=O)c2ccccc2)cc1` .
Output: inactive

Input: I would be grateful if you could indicate the recorded call for `CCCCCCCCc1ccc(C(=O)Nc2cccc(P(=O)(O)O)c2)cc1` .
Output: inactive

Input: I would be grateful if you could indicate the recorded call for CCCCCCCS(=O)(=O)N1CCCC(C(=O)Nc2nc3ccc(NC(=O)c4ccc(F)c(OC)c4F)cc3s2)C1 (configuration not stated) .
Output: inactive

Input: I would be grateful if you could indicate the recorded call for `COc1cccc(COc2ccc(NC(=O)Nc3ccc(Cl)c(C(F)(F)F)c3)cc2)c1` .
Output: inactive

Input: I would be grateful if you could indicate the recorded call for `COc1ccccc1C(=O)NN1C(=O)/C(=C/C2=Cc3ccccc3OC2)SC1=S` .
Output: inactive

Input: I would be grateful if you could indicate the recorded call for `O=c1oc2ccccc2cc1-c1csc(N=Nc2c(O)[nH]c3ccc(Cl)cc23)n1` .
Output: inactive

Input: I would be grateful if you could indicate the recorded call for C=C1CCC2C3(C)COC(c4ccccc4F)OC3CCC2(C)C1CC(O)C1=CCOC1=O (configuration not stated) .
Output: active

Input: I would be grateful if you could indicate the recorded call for `COc1ccc2[nH]c(O)c(N=NC(=O)COc3ccc(NC(=O)Nc4ccccc4)cc3)c2c1` .
Output: inactive

Input: I would be grateful if you could indicate the recorded call for `COc1ccc(-c2nc(SCC(C)C)nc(NCCc3c[nH]c4ccccc34)c2C#N)cc1` .
Output: inactive

Input: I would be grateful if you could indicate the recorded call for `NS(=O)(=O)c1ccc(-n2cc(-c3cccc(NC(=O)c4cc(N5CCOCC5)cc(C(F)(F)F)c4)c3)nn2)cc1` .
Output: inactive

Input: I would be grateful if you could indicate the recorded call for CC12CC[C@@H]3[C@]4(C)COC(c5cn[nH]c5-c5ccc(Cl)cc5)O[C@@H]4CC[C@@]3(C)[C@@H]1CC(C1=CCOC1=O)O2 (some centres not stated) .
Output: inactive

Input: I would be grateful if you could indicate the recorded call for CCOC(=O)/C=C/c1cccc2c1C(=O)NC(C)(c1cc3cc(Cl)ccc3oc1=O)N2 (configuration not stated) .
Output: inactive

Input: I would be grateful if you could indicate the recorded call for `Cn1cc(-c2nnc(N)nc2-c2c[nH]c3ccc(Br)cc23)c2cc(Br)cnc21` .
Output: inactive

Input: I would be grateful if you could indicate the recorded call for `CCOc1ccc(C(=O)NC(=S)Nc2ccc(S(N)(=O)=O)cc2)cc1` .
Output: inactive

Input: I would be grateful if you could indicate the recorded call for `COc1ccc(-c2nc3ccc(C(=O)NN4C(=O)c5ccc([N+](=O)[O-])cc5C4=O)cc3[nH]2)cc1` .
Output: inactive

Input: I would be grateful if you could indicate the recorded call for `NS(=O)(=O)c1ccc(N=Nc2c(O)n(CC(=O)Nc3ccccc3Cl)c3ccccc23)cc1` .
Output: inactive

Input: I would be grateful if you could indicate the recorded call for COc1cc(C2CC(c3ccc(S(=O)(=O)NCCNc4nc(Nc5ccc(F)cc5)nc(N(C)C)n4)cc3)=Nc3c(N)nc(N)nc3N2)cc(OC)c1OC (configuration not stated) .
Output: inactive

Input: I would be grateful if you could indicate the recorded call for CN(C)CCOc1ccc(C(=O)C2[C@H](c3ccc(Cl)cc3)[C@@H](c3ccccc3)NC23C(=O)Nc2ccc(Br)cc23)cc1 (some centres not stated) .
Output: active

Input: I would be grateful if you could indicate the recorded call for `O=C1N/C(=N\c2nccs2)S/C1=C\C=C/c1ccccc1` .
Output: inactive

Input: I would be grateful if you could indicate the recorded call for `COc1ccc(/C=N/NC(=O)Cn2nc(Cc3ccc(OC)cc3)c3onc(C)c3c2=O)cc1` .
Output: inactive

Input: I would be grateful if you could indicate the recorded call for CC1(C)CC[C@]2(C(=O)O)CC[C@]3(C)C(=CCC4[C@@]5(C)C[C@@H](O)[C@@H]6OC(c7ccccc7F)OC[C@@]6(C)C5CC[C@]43C)C2C1 (some centres not stated) .
Output: inactive

Input: I would be grateful if you could indicate the recorded call for `CN(C)c1nc(NCCNS(=O)(=O)c2ccc(C(=O)/C=C/c3ccc(F)cc3)cc2)nc(Nc2ccc(F)cc2)n1` .
Output: active

Input: I would be grateful if you could indicate the recorded call for `Nc1nc(-c2ccccc2)c(N=Nc2ccc(Cl)cc2[N+](=O)[O-])s1` .
Output: inactive
